This collection of values is drawn from paper PMC3063522.

- Test system: Botrytis cinerea
- TEST_DESCRIPTION: Antifungal broth dilution microbioassay, Botrytis cinerea
- Type: cell-based
- CONDITION_PARAMETERS: 72 h
REPORTED_PROPERTY: Growth inhibition of B. cinerea

COMPOUND: Oc1ccc(/C=C/c2cc(O)cc(O)c2)cc1 [Compound 24, resveratrol, reference compound]
REPORTED_PROPERTY: Growth inhibition of B. cinerea
OBSERVED: no activity

COMPOUND: Oc1cc(O)cc(/C=C/c2ccccc2)c1 [Compound 11, pinosylvin]
REPORTED_PROPERTY: Growth inhibition of B. cinerea
OBSERVED: no activity

COMPOUND: Oc1ccc(/C=C/c2ccccc2)cc1O [Compound 12]
REPORTED_PROPERTY: Growth inhibition of B. cinerea
OBSERVED: no activity

###

- TEST_DESCRIPTION: Cytotoxicity to RAW 264.7 cells in the iNOS assay
- Assay type: cell-based, mouse
- CONDITION_PARAMETERS: mouse, RAW 264.7 macrophages
REPORTED_PROPERTY: IC50 (µg/mL)
Numbers only, in µg/mL.

Completed entries (count: 3):
SMILES_INPUT: CC(C)=CCC/C(C)=C/Cc1c(O)cc(/C=C/c2ccc(O)cc2O)cc1O
OBSERVED: 9
//
SMILES_INPUT: CC(C)/C=C/c1c(O)cc(/C=C/c2ccc(O)c(O)c2)cc1O
OBSERVED: 8.3
//
SMILES_INPUT: Oc1cccc(/C=C/c2ccccc2)c1
OBSERVED: 22

Field: next compound
Dear colleague, I am looking for the recorded IC50 of the following compound: CC1(C)C=Cc2c(O)cc(/C=C/c3ccc(O)cc3)cc2O1 16

###

- TEST_DESCRIPTION: Cytotoxicity
- Type: cell-based
- CONDITION_PARAMETERS: pig, LLC-PK11 kidney epithelial cells
REPORTED_PROPERTY: log10 IC50 (log10 of the value in µg/mL)
Please note: log10 values; quantity IC50; unit µg/mL.

Completed entries (count: 3):
COMPOUND: Oc1ccc(/C=C/c2cccc(O)c2)cc1 [Compound 15, trans-3,4′-dihydroxystilbene]
log10 IC50: 1.08

COMPOUND: CC(C)/C=C/c1c(O)cc(/C=C/c2ccc(O)c(O)c2)cc1O [Compound 1, arachidin-1]
log10 IC50: 0.45

COMPOUND: CC1(C)C=Cc2c(O)cc(/C=C/c3ccc(O)cc3)cc2O1 [Compound 10, arahypin-5]
log10 IC50: 1.29

Batch request: log10 IC50 per item, same order as input.
1. COc1cccc2c1C(=O)c1c(O)c3c(c(O)c1C2=O)C[C@@](O)(C(=O)CO)C[C@@H]3O[C@H]1C[C@H](N)[C@H](O)[C@H](C)O1 [Doxorubicin, reference compound]
2. CC(C)=CCC/C(C)=C/Cc1c(O)cc(/C=C/c2ccc(O)cc2O)cc1O [Compound 22, chlorophorin]
3. CC(C)=CCc1c(O)cc(/C=C/c2ccccc2)cc1O [Compound 5, chiricanine A]

-0.05
1.16
1.29

###

For each entry below, report its IC50 value.
- TEST_DESCRIPTION: Cytotoxicity to RAW 264.7 cells in the iNOS assay
- Type: cell-based, mouse
- CONDITION_PARAMETERS: mouse, RAW 264.7 macrophages

Completed entries (count: 4):
COMPOUND: Oc1cccc(CCc2ccccc2)c1
IC50: > 25 µg/mL

COMPOUND: Oc1cc(O)cc(/C=C/c2ccccc2)c1
IC50: 10.5 µg/mL

COMPOUND: CC(C)(O)C(O)Cc1cc(/C=C/c2cc(O)cc(O)c2)ccc1O (stereo not shown)
IC50: > 25 µg/mL

COMPOUND: CC(C)=CCc1c(O)cc(/C=C/c2ccccc2)cc1O
IC50: 13 µg/mL

Batch request: IC50 per item, same order as input.
1. Oc1ccc(/C=C/c2ccccc2)cc1O
2. COc1ccc(/C=C/c2cc(O)cc(O[C@@H]3O[C@H](CO)[C@@H](O)[C@H](O)[C@H]3O)c2)cc1O [Compound 23, rhapontin, reference compound]
3. Oc1ccc(/C=C/c2cc(O)cc(O)c2)cc1 [Compound 24, resveratrol, reference compound]

["> 25 µg/mL", "> 25 µg/mL", "> 25 µg/mL"]
